assay_name: NCI Yeast Anticancer Drug Screen. Data for the mlh1 rad18 strain (AID 175)
condition_info: S. cerevisiae mlh1 rad18 strain growth inhibition; at 50.0 µM; hits give high values
Method: Growth inhibition of yeast strains with defined genetic alterations is measured as a screen for potential anti-cancer activity. Selected strains with alterations in DNA damage repair or cell cycle control were exposed to compounds and growth inhibition was measured relative to vehicle treated controls. The strain used in this assay is mlh1 rad18
This is part of a sample that, as a whole, favours compounds with a hit. Of some 79,000 tested, about 15% had one in any assay.
property: growth inhibition (%)
Field: numeric (%). Do not append units.

The following compounds have reported results that may help.
COc1cccc2c1CCC(=O)C2: -18.3
Cc1ccc(NC(=O)OCC2CC3C=CC2C3)cc1NC(=O)OCC1CC2C=CC1C2 (stereo not given): 3.7
Cc1c[n+]2c(C)cccc2n1C: 3.65
Cc1c(C)c(Cl)c(C)c(C(Cl)(Cl)Cl)c1C: -6.25
O=C(CSCSCC(=O)Nc1ccc(C2=NCCN2)cc1)Nc1ccc(C2=NCCN2)cc1: 19.9

# growth inhibition lookup, item `CCOC(=O)c1ccc(N=C(N)N)cc1` 19.6

Now give it for `Cc1nc(-c2cc3c(ccc4ccccc43)oc2=O)cs1` too. -21.5

Now give it for `Cc1ccc2nc(NC(=O)OCc3ccccc3)sc2c1` too. 9.65

Now give it for C=CCN=C1NC(=O)C(CC(=O)Nc2cccc(Cl)c2)S1 (stereo not given) too. -22.4

Now give it for `COc1ccc(N=Cc2cc(Cl)cc(Cl)c2OC(=O)c2ccccc2)cc1` too. -19.2

Now give it for `COc1ccc(-c2cc(N3CCN(c4ccccc4)CC3)c(C#N)c(=O)o2)cc1` too. 12.1

Now give it for COc1ccc(N2C(=O)CC(c3c[nH]c4ccccc34)C2=O)cc1 (stereo not given) too. -22.2

Now give it for `CCOC(=O)Nc1cccc(Cl)c1` too. 22.1

* * *

Listed here are molecules together with their documented growth inhibition.
assay_name: NCI Yeast Anticancer Drug Screen. Data for the sgs1 mgt1 strain (AID 161);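 note: 0% = growth of cultures given vehicle only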
condition_info: S. cerevisiae sgs1 mgt1 strain, at 50.0 µM, hits give high values
Method: Growth inhibition of yeast strains with defined genetic alterations is measured as a screen for potential anti-cancer activity. Selected strains with alterations in DNA damage repair or cell cycle control were exposed to compounds and growth inhibition was measured relative to vehicle treated controls. The strain used in this assay is sgs1 mgt1
Compounds without any hit were thinned out: in the full panel of roughly 79,000, 15% have a hit.
Field: numeric (%). Do not append units.

The following molecules have reported results that may help.
O=C1c2ccccc2-c2ccc3c4ccc5c6c(ccc(c7ccc1c2c73)c64)C(=O)c1ccccc1-5: 36.8
CC(C)(C)c1ccc(OC(=S)Nc2ccccc2)cc1: -17.4

# growth inhibition lookup, item `COC1=Cc2nc3ccccc3nc2OC1(C)C` 10.6

Now give it for `OCc1ccccc1CN1CCCC1` too. 17.8

* * *

assay_name: NCI Yeast Anticancer Drug Screen. Data for the rad50 strain (AID 155);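 note: 0% = growth of vehicle-only cultures of the same strain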
condition_info: S. cerevisiae rad50 strain growth inhibition; at 50.0 µM; hits give high values
The panel holds about 79,000 compounds, 15% with a hit somewhere; the sample as a whole holds those more often.
property: growth inhibition (%)
Field: numeric (%). Do not append units.

CC(=O)OCC1C(=O)OCC1C(=O)N1Cc2cc3ccccc3nc2C1 (centres undefined): -10.6
CC1(C)CC(=O)C(/C=N/C(=S)NCCc2ccccc2)=C(O)C1: -22.8
CN(CC(O)CN1CCCc2ccccc21)C1CCCCC1 (centres undefined): -5.8

# growth inhibition lookup, item `COc1c(C)c2c(c(C)c1Cl)Oc1c(C=O)c(O)c(Cl)c(C)c1C(=O)O2` 55

Now give it for `O=C(CSc1c2ccccc2nc2ccccc12)Nc1ccccc1-c1ccccc1NC(=O)CSc1c2ccccc2nc2ccccc12` too. 27.4

Now give it for CC(=O)OC12c3ccccc3C(c3ccccc31)C1C(=O)N(c3ccccn3)C(=O)C12 (centres undefined) too. -23.6

Now give it for CC1(Nc2ccccc2)OC(=O)c2ccccc21 (centres undefined) too. -14.2

Now give it for CC1(C)CC(C(N)=O)C(=O)O1 (centres undefined) too. -17.4

Now give it for `COc1cc(CNc2nc3ccccc3n2Cc2ccccc2)cc(CN2CCOCC2)c1O` too. -4.4

Now give it for CON(C)S(=O)c1ccc([N+](=O)[O-])cc1 (centres undefined) too. 29.8

Now give it for O=C(NCc1ccccc1)C1C2C=CC(C2)C1C(=O)NCc1ccccc1 (centres undefined) too. -6.65

Now give it for `COC(=O)Nc1nc2ccc(SC)cc2c(=O)[nH]1` too. -9.55

Now give it for `CN(Cc1ccccc1)C(=O)c1ccc(Cl)cc1` too. -1.35

Now give it for `COc1ccc(S(=O)(=O)N(C)c2ccccc2)cc1` too. 2.9

Now give it for `COc1ccc(NC2=CC(=O)C(=O)c3ccccc32)nn1` too. -4

Now give it for `N[C@@H](CSSc1ccccc1C(=O)O)C(=O)O` too. -32.9

Now give it for `c1ccc(-c2nc(-c3nn[nH]n3)c3ccccc3n2)cc1` too. -1.2

Now give it for `NC(=O)c1ccccc1NC(=O)Nc1ccc(Cl)cc1` too. -3.6

Now give it for `Clc1ncnc2c1cnn2-c1ccccc1` too. -4.05

Now give it for COc1ccc(NS(=O)c2cccc(C)c2)cc1 (centres undefined) too. -8.05

Now give it for `N#CC(C#N)N=Cc1ccncc1` too. 14.2

Now give it for `O=C(CO)CC(=O)C(=O)Nc1ccccc1` too. -10.8

Now give it for Cc1ccc(NC(=O)C(=O)C(C2C(C)CC(=O)C2CC(=O)O)[N+](=O)[O-])cc1 (centres undefined) too. 23.6

Now give it for O=[N+]([O-])c1ccc(C(O)C(c2ccccc2)S(=O)(=O)N2CCCCC2)cc1 (centres undefined) too. 40.6

meta.source: PubChem BioAssay (NCI)
